B1: FEM1A (parent)
chain: NIVEYLIQEQPGQEQVAGGEAQPG

variants of: B1; test: protein stability index of a GFP-peptide fusion (GPS, HEK-293T) (PSI 1-6); higher = more stable; settings: c terminus: a fixed tail appended;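 note: lentivirally expressed fusions sorted by FACS into six bins by GFP to DsRed ratio, PSI derived from sequencing read proportions per bin multiplied by bin number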
The entries below come with measured protein stability index values attached.
TEST_READOUT: protein stability index

>>> readout_value("Q13M")
3.86
>>> readout_value("Y5W")
2.18
>>> readout_value("G18W")
3.12
>>> readout_value("E20T")
3.63
>>> readout_value("V16H")
4.36
>>> readout_value("G18H")
4.47
>>> readout_value("E20G")
4.38
>>> readout_value("E14I")
3.25
>>> readout_value("Q10L")
3.43
>>> readout_value("P11C")
3.11
>>> readout_value("E9T")
3.15
>>> readout_value("Q8T")
4.88
>>> readout_value("E9H")
2.95
>>> readout_value("P23E")
4.74
>>> readout_value("Q13P")
4.26
>>> readout_value("Q13R")
3.79
>>> readout_value("P11H")
3.6
>>> readout_value("V16C")
4.02
>>> readout_value("E20R")
3.79
>>> readout_value("L6G")
5.51
>>> readout_value("Q10I")
3.75
>>> readout_value("A21L")
3.95

Data origin, for the record: the supplement of paper PMC10567573
